# measurement-target: Human Factor D (Homo sapiens (Human))
# test-summary: Human Factor D Assay
# Type: biochemical
# run-parameters: Factor D inhibition, assay of Example 10; read-out: IC5 (Stars)
pIC50: −log10 of the molar value.
measure-name: pIC50

compound	measurement-target	pIC50
CC(=O)c1nn(CC(=O)N2[C@H](C(=O)Nc3cc(C#N)cc(Br)n3)C[C@@]3(C)C[C@@H]23)c2ccc(-c3cnc(C)nc3)cc12 [Compound 543]	Human Factor D (Homo sapiens (Human))	> 6.00

# per-item lookup of pIC50; items listed below
1. CC(=O)c1cn(CC(=O)N2[C@H](C(=O)Nc3nc(OC(F)(F)F)ccc3C)C[C@@]3(C)C[C@@H]23)c2c(C)cc(-c3cnc(C)nc3)cc12 [Compound 448]
2. CC(=O)c1nn(CC(=O)N2[C@H](C(=O)Nc3nc(Br)c(F)cc3C)C[C@@]3(Cc4nc(C)no4)C[C@@H]23)c2c(C)nc(-c3cnc(C)nc3)cc12 [Compound 423]

> 6.00
> 6.00

###

# measurement-target: Human Factor D (Homo sapiens (Human), UniProt P00746)
# Sequence (P00746 26-253): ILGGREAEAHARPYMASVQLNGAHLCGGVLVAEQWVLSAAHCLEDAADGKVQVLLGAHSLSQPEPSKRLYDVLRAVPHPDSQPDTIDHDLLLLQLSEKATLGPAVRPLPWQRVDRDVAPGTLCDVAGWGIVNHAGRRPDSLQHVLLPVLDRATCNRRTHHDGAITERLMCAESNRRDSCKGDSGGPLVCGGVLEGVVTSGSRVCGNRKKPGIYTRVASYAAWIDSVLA
# test-summary: Human Factor D Assay
# Format: biochemical
# run-parameters: Factor D inhibition, assay of Example 10; read-out: IC5 (Stars)
pIC50: −log10 of the molar value.
measure-name: pIC50

Worked cases, answers included:
smiles-code	pIC50
CC(=O)c1nn(CC(=O)N2[C@H](C(=O)Nc3nc(Br)ccc3C)C[C@@]3(c4cn(C(C)C)nn4)C[C@@H]23)c2ccc(-c3cnc(C)nc3)cc12	> 6.00
CC(=O)c1nn(CC(=O)N2[C@H](C(=O)Nc3nc(Br)ccc3C)C[C@@]3(CNC(C)C)C[C@@H]23)c2c(C)cc(-c3cnc(C)nc3)cc12	> 6.00

# per-item lookup of pIC50; items listed below
1. CC(=O)c1cn(CC(=O)N2[C@H](C(=O)Nc3nc(Br)c(F)cc3C)C[C@@]3(C)C[C@@H]23)c2ccc(-c3cnc(C)nc3)cc12
2. Cc1ncc(-c2ccc3c(c2)c(C(=O)c2ncc[nH]2)nn3CC(=O)N2[C@H](C(=O)Nc3nc(Br)ccc3C)C[C@@]3(C)C[C@@H]23)cn1
3. CC(=O)c1nn(CC(=O)N2[C@H](C(=O)Nc3cc(C(F)(F)F)cc(Br)n3)C[C@@]3(C)C[C@@H]23)c2ccc(-c3cnc(C)nc3)cc12
4. CC(=O)c1nn(CC(=O)N2[C@H](C(=O)N[C@H](C)c3ccccc3)C[C@@]3(C)C[C@@H]23)c2ccc(-c3cnc(C)nc3)cc12

> 6.00
< 5.00
> 6.00
> 6.00

# per-item lookup of pIC50; items listed below
1. CC(=O)c1nn(CC(=O)N2[C@H](C(=O)N[C@@H](C)c3ccc(C)cc3)C[C@@]3(C)C[C@@H]23)c2ccc(-c3cnc(C)nc3)cc12
2. CC(=O)c1nn(CC(=O)N2[C@H](C(=O)Nc3nc(Br)ccc3C)C[C@@]3(CN4CC5(CC5)C4)C[C@@H]23)c2c(CF)cc(-c3cnc(C)nc3)cc12
3. CC(=O)c1nn(CC(=O)N2[C@H](C(=O)Nc3nc(Br)c(F)cc3C)C[C@@]3(Cc4nnc(C)o4)C[C@@H]23)c2c(C)cc(-c3cnc(C)nc3)cc12
4. CC(=O)c1nn(CC(=O)N2[C@H](C(=O)Nc3nc(OC(F)(F)F)ccc3C)C[C@@]3(C)C[C@@H]23)c2cnc(-c3cnc(C)nc3)cc12
5. CC(=O)c1nn(CC(=O)N2[C@H](C(=O)NC(CCc3ccccc3)(CCc3ccccc3)C(=O)O)C[C@@]3(C)C[C@@H]23)c2c(C)cc(-c3cnc(C)nc3)cc12

["5.00 to 6.00", "> 6.00", "> 6.00", "> 6.00", "< 5.00"]

###

Please go through the items and note down their pIC50.
# measurement-target: Human Factor D (Homo sapiens (Human), UniProt P00746)
# test-summary: Human Factor D Assay
# Type: biochemical
# run-parameters: Table 6; Factor D 80 nM, substrate Z-L-Lys-SBz; read-out: IC50
pIC50: −log10 of the molar value.

Worked cases, answers included:
compound	measurement-target	pIC50
CC(=O)c1nn(CC(=O)N2[C@H](C(=O)Nc3nc(Br)c(F)cc3C)C[C@@]3(C)C[C@@H]23)c2cnc(-c3cnc(N)nc3)cc12 [Compound 195]	Human Factor D (Homo sapiens (Human), UniProt P00746)	> 6.00
CC(=O)c1nn(CC(=O)N2[C@H](C(=O)Nc3nc(Br)ccc3C)C[C@@]3(C)C[C@@H]23)c2cnc(-c3cnc(C)nc3)cc12 [Compound 15]	Human Factor D (Homo sapiens (Human), UniProt P00746)	> 6.00

Would you kindly look at the next entry?
# lookup: Human Factor D (Homo sapiens (Human), UniProt P00746) pIC50, key = CC(=O)c1nn(CC(=O)N2[C@H](C(=O)NCCOC(F)(F)F)C[C@@]3(C)C[C@@H]23)c2c(C)cc(-c3cnc(C)nc3)cc12 [Compound 81] > 6.00

###

# measurement-target: Human Factor D (Homo sapiens (Human))
# test-summary: Human Factor D Assay
# Type: biochemical
# run-parameters: Factor D inhibition, assay of Example 10; read-out: IC5 (Stars)
Please go through the items and note down their IC50.

Worked cases, answers included:
smiles-code	IC50
CC(=O)c1nn(CC(=O)N2[C@H](C(=O)Nc3nc(Br)ccc3C)C[C@@]3(c4cc(C(C)C)no4)C[C@@H]23)c2ccc(-c3cnc(C)nc3)cc12	< 1000 nM
Cc1ncc(-c2cc3c(C(N)=O)nn(CC(=O)N4C[C@H]5C[C@H]5[C@H]4C(=O)Nc4nc(Br)ccc4C)c3c(C)n2)cn1	< 1000 nM

Would you kindly look at the next entry?
Identify measured IC50 corresponding to CC(=O)c1nn(CC(=O)N2[C@H](C(=O)Nc3nc(Br)ccc3C)C[C@@]3(CCN(C)C)C[C@@H]23)c2c(CF)cc(-c3cnc(C)nc3)cc12 < 1000 nM

###

Please go through the items and note down their pIC50.
# measurement-target: Human Factor D (Homo sapiens (Human), UniProt P00746)
# test-summary: Human Factor D Assay
# Assay type: biochemical
# run-parameters: Factor D inhibition, assay of Example 10; read-out: IC5 (Stars)
pIC50: −log10 of the molar value.

Worked cases, answers included:
molecule	pIC50
CC(=O)c1nn(CC(=O)N2C[C@](F)(CF)C[C@H]2C(=O)Nc2nc(Br)ccc2C)c2ccc(-c3cnc(C)nc3)cc12 [Compound 422]	> 6.00
CC(=O)c1nn(CC(=O)N2[C@H](C(=O)Nc3cncc(Br)n3)C[C@@]3(Cc4nc(C)no4)C[C@@H]23)c2c(C)cc(-c3cnc(C)nc3)cc12 [Compound 447]	> 6.00
CC(=O)c1nn(CC(=O)N2[C@H](C(=O)NCc3cccc(Cl)c3F)C[C@@]3(Cc4nc(C)no4)C[C@@H]23)c2c(C)cc(-c3cnc(C)nc3)cc12 [Compound 427]	> 6.00
CC(=O)c1nn(CC(=O)N2[C@H](C(=O)Nc3cc(C(N)=O)cc(Br)n3)C[C@@]3(C)C[C@@H]23)c2ccc(-c3cnc(C)nc3)cc12 [Compound 503]	> 6.00
CSCc1cc(F)c(Br)nc1NC(=O)[C@@H]1C[C@@]2(C)C[C@H]2N1C(=O)Cn1nc(C(C)=O)c2cc(-c3cnc(C)nc3)ccc21 [Compound 438]	> 6.00

# per-item lookup of pIC50; items listed below
1. CC(=O)c1cn(CC(=O)N2[C@H](C(=O)Nc3nc(Br)c(F)cc3C)C[C@@]3(C)C[C@@H]23)c2c(C)nc(-c3cnc(C)nc3)cc12 [Compound 471]
2. CC[C@@]12C[C@@H](C(=O)Nc3nc(Br)ccc3C)N(C(=O)Cn3nc(C(C)=O)c4cc(-c5cnc(C)nc5)ccc43)[C@@H]1C2 [Compound 286]
3. CC(=O)c1nn(CC(=O)N2C[C@@](F)(CF)C[C@H]2C(=O)Nc2nc(Br)ccc2C)c2c(C)nc(-c3cnc(C)nc3)cc12 [Compound 410]
4. COc1cc2c(cc1-c1cnc(C)nc1)c(C(C)=O)nn2CC(=O)N1[C@H](C(=O)Nc2nc(Br)ccc2C)C[C@@]2(C)C[C@@H]12 [Compound 394]
5. CC(=O)c1nn(CC(=O)N2[C@H]3C[C@@]3(CC#N)C[C@H]2C(=O)Nc2nc(Br)ccc2C)c2cnc(-c3cnc(C)nc3)cc12 [Compound 239]
6. CC(=O)c1nn(CC(=O)N2[C@H](C(=O)Nc3nc(Br)ccc3C)C[C@@]3(CCC(F)F)C[C@@H]23)c2cnc(-c3cnc(C)nc3)cc12 [Compound 327]
7. CC(=O)c1nn(CC(=O)N2C[C@](F)(CN(C)C)C[C@H]2C(=O)Nc2nc(Br)ccc2C)c2ccc(-c3cnc(C)nc3)cc12 [Compound 420]

1: > 6.00; 2: > 6.00; 3: > 6.00; 4: > 6.00; 5: 5.00 to 6.00; 6: > 6.00; 7: 5.00 to 6.00
